Values from PubChem BioAssay

- protocol_notes: growth suppression of yeast trafficking mutant, preliminary HTS, modulators of trafficking downstream of Golgi apparatus project, 1536-format plate, OD 615 nm (AID 637)
- measurement_setup: yeast transport mutant growth, absorbance 615 nm, 18 h; stronger effect = higher value
property_name: inhibition (%)

| smi | unit_spec | reported_measurement |
| --- | --- | --- |
| CNC(=O)c1ccc2nc(NC(C)=O)sc2c1 | % | -0.36 |
| COc1ccc(-n2ncc3c(NCc4ccc5c(c4)OCO5)ncnc32)cc1 | % | 3.71 |
| CCc1ccccc1NC(=O)c1ccoc1C | % | 4.19 |

* * *

- protocol_notes: reversal of MRP1-mediated doxorubicin resistance, pilot screen, H69AR cells, doxorubicin co-treatment (AID 601)
- measurement_setup: H69AR cells + 2 uM doxorubicin, CellTiter-Glo, 72 h; at 10 µM; stronger effect = higher value
Recorded differential viability (reversal) for the following compounds

| compound | unit_spec | differential viability (reversal) |
| --- | --- | --- |
| CC1=NN(c2ccccc2)C(=O)C1 | % | -10.1 |
| C=C(C)COc1ccc(-c2nc(N)ncc2Oc2ccccc2OCC)c(O)c1 | % | -12.4 |
| O=C(c1ccccc1)c1ccc(N2CCNCC2)cc1 | % | -5.36 |
| NS(=O)(=O)c1ccc(CCNC(=O)CCC2COc3ccccc3O2)cc1 (centres undefined) | % | 8.33 |
